target: hVEGF-A (human, UniProt P15692-4 27-191, limits assumed); assay: cell-based or functional assay
Below is a list of entries, each paired with its recorded FOLD [..] [..] TO VARIANT 9.54.90 value.
Express the result in fold but write the number alone.

{"binder": "GCNIMLPFWGCGRDFECMQTCICQYYQSCG (designed binder) [VEGF_CKP9.54.90.25]", "units_label": "fold", "FOLD [..] [..] TO VARIANT 9.54.90": 1.07}
{"binder": "CNIMLPYWGCGRDFECLAGCVCQYYQSC (designed binder) [9.54.90.F7Y.A2G]", "units_label": "fold", "FOLD [..] [..] TO VARIANT 9.54.90": 0.44}
{"binder": "GCNIMLPYWGCGRDFECFYECICQYYQSCG (designed binder) [VEGF_CKP9.54.90.62.F8Y]", "units_label": "fold", "FOLD [..] [..] TO VARIANT 9.54.90": 1.18}
{"binder": "GCNIMLPFWGCGRDFECMNQCICQYYQSCG (designed binder) [VEGF_CKP9.54.90.13]", "units_label": "fold", "FOLD [..] [..] TO VARIANT 9.54.90": 1.41}
{"binder": "GCNIMLPFWGCGRDFECFINCICQYYQSCG (designed binder) [VEGF_CKP9.54.90.44]", "units_label": "fold", "FOLD [..] [..] TO VARIANT 9.54.90": 1.16}
{"binder": "GCDVMQPYWGCGPDIDCLSNCICHWYNSCG (designed binder) [VEGF_CKP9.63.12.12]", "units_label": "fold", "FOLD [..] [..] TO VARIANT 9.54.90": 2.41}
{"binder": "GCNIMLPFWGCGRDFECFYECICQYYQSCG (designed binder) [VEGF_CKP9.54.90.62]", "units_label": "fold", "FOLD [..] [..] TO VARIANT 9.54.90": 1.47}
{"binder": "GCNIMLPYWGCGRDFECMNQCICQYYQSCG (designed binder) [VEGF_CKP9.54.90.13.F8Y]", "units_label": "fold", "FOLD [..] [..] TO VARIANT 9.54.90": 0.67}

The reported FOLD [..] [..] TO VARIANT 9.54.90 of the binder GCNIMLPFWGCGRDFECMEQCICQYYQSCG (designed binder) [VEGF_CKP9.54.90.67] was 1.23

The reported value for GCNIMLPFWGCGRDFECMSDCICQYYQSCG (designed binder) [VEGF_CKP9.54.90.12] in terms of FOLD [..] [..] TO VARIANT 9.54.90 is 1.12

Cited source for all entries: patent US20200325187A1
